- Tested on: CAKI-1 renal
- Test Method Notes: NCI tumour cell line growth inhibition, 48 h
Value Type: TGI

Molecule	Endpoint Result
O=C(/C=C/c1ccccc1)C(Br)C(Br)c1ccccc1 (stereo not drawn)	2.6 µM
O=C(OC1C2OC(=O)c3cc(O)c(O)c(O)c3Oc3cc4c(c(O)c3O)-c3c(cc(O)c(O)c3O)C(=O)OCC3OC(O)C(OC(=O)c5cc(O)c(O)c(O)c5Oc5cc6c(c(O)c5O)-c5c(cc(O)c(O)c5O)C(=O)OC1C(COC6=O)OC2O)C(OC(=O)c1cc(O)c(O)c(O)c1)C3OC4=O)c1cc(O)c(O)c(O)c1 (stereo not drawn)	> 100 µM

Now let's try a different one.
Q. # query: TGI of entry OCc1ccc(N2CCc3cccc(F)c3C2)cc1Cl
A. 21.8 µM
